// provenance: patent US20220380463A1

# target under test: T1, Cynomolgus CD3εδ Fc heterodimer (Cy CD3ε Fc / CD3δ Fc-HIS) (cynomolgus, UniProt Q95LI8 22-100)
# T1 chain 1: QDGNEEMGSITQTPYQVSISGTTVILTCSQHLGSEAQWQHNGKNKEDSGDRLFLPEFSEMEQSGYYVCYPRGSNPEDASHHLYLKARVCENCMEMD
# T1 chain 2: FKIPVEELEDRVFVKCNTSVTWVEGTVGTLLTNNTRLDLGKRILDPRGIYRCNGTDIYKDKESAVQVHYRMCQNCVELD
# test details: BLI (Octet), IgG on AHC sensor, pH 6.0
recorded endpoint: koff (s⁻¹)
Numbers only; they are read as s⁻¹.

- SAD10319_P06_H07 (ADI-57433) (antibody, V domains shown, IgG; also called Ab163) VH: QVQLVQSGAEVKKPGASVKVSCKASGYTFVSYNMHWVRQAPGQRLEWMGSINAGDANTKYSQKFQGRVTITRDTSASTAYMELSSLRSEDTAVYYCARDHYGHYFYDVWGQGTLVTVSS VL: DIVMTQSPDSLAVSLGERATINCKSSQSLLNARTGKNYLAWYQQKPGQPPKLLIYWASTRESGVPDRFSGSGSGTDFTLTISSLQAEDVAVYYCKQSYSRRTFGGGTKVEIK: 0.00901

The recorded koff for entry SAD10318_P04_E11 (ADI-57292) (antibody, V domains shown, IgG; also called Ab220) VH: QVQLVQSGAEVKKPGASVKVSCKASGFNIKDYYMHWVRQAPGQRLEWMGWIDLENANTIYDAKFQGRVTITRDTSASTAYMELSSLRSEDTAVYYCARDAYGHYFYDHWGQGTLVTVSS VL: DIVMTQSPDSLAVSLGERATINCKSSQSLLNARTGHNHLAWYQQKPGQPPKLLIYWASTRESGVPDRFSGSGSGTDFTLTISSLQAEDVAVYYCHQSYSHRTFGGGTKVEIK equals 0.00256

The recorded koff for entry LAD9966_P01_A08 (ADI-57445) (antibody, V domains shown, IgG; also called Ab176) VH: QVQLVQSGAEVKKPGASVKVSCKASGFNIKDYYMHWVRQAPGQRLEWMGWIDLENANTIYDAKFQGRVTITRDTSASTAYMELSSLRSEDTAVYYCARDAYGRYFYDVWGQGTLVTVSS VL: DIVMTQSPDSLAVSLGERATINCKSSQSLLNARTGKNHLAWYQQKPGQPPKLLIYWASTRESGVPDRFSGSGSGTDFTLTISSLQAEDVAVYYCKQSYSRRTFGGGTKVEIK equals 0.0035

The recorded koff for entry SAD10319_P04_G11 (ADI-48641) (antibody, V domains shown, IgG; also called Ab39) VH: QVQLVQSGAEVKKPGASVKVYCKASGYTFTTYEMHWVRQAPGQRLEWMGSINAGDANTKYSQKFQGRVTITRDTSASTAYMELSSLRSEDTAVYYCARDAYHHYFYDVWGQGTLVTVSS VL: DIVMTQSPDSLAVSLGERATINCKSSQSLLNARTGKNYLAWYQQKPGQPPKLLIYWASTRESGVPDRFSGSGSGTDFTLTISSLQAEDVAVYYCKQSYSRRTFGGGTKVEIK equals 0.00317

The recorded koff for entry SAD10319_P05_A05 (ADI-57398) (antibody, V domains shown, IgG; also called Ab124) VH: QVQLVQSGAEVKKPGASVKVSCKASGYTFTAYTMHWVRQAPGQRLEWMGWINPDTGATDYSQKFQGRVTITRDTSASTAYMELSSLRSEDTAVYYCARDAYHHYFYDVWGQGTLVTVSS VL: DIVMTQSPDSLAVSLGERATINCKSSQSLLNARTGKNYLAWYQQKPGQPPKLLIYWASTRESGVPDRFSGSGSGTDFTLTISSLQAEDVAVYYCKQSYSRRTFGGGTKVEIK equals 0.0118
